Test: A CellTox Green Cytotoxicity Assay to monitor cytotoxicity in HepG2 cells - 24 hour (AID 1224878); note: nearly all actives have a fitted effect of over 45% in size
Details: CellTox Green fluorescence; series mostly up to 76.8 µM
Inconclusive results are not listed. The source made the active and inactive calls. Calls come from the whole dose curve; as a rule, active = well fitted activation curve with a large enough effect in the repeat runs; inconclusive = weak or mixed curves; inactive = flat fitted curve, though single readings scatter.
Labels: active, inactive

| compound | qualitative-label |
| --- | --- |
| CCOC(C)OCC | inactive |
| O=C(O)CNc1ccccc1 | inactive |
| Clc1nc2ccccc2nc1Cl | inactive |
| O=C1CCCN1CCO | inactive |
| CCc1ccc2c(c1)C(=O)c1ccccc1C2=O | inactive |
| CC(C)(C)c1cc(C=O)cc(C(C)(C)C)c1O | inactive |
| CC(Cc1ccccc1)(NC(=O)CN)c1ccccc1 (stereo unspecified) | inactive |
| CCc1ccc(C(=O)C(C)CN2CCCCC2)cc1 (stereo unspecified) | inactive |
| CC(=O)OCC(=O)[C@@]1(O)CC[C@H]2[C@@H]3CCC4=CC(=O)C=C[C@]4(C)[C@@]3(F)[C@@H](O)C[C@@]21C | inactive |
| O=[N+]([O-])c1cccc(I)c1 | inactive |
| O=C(O)c1cccc(C(=O)O)c1C(=O)O | inactive |
| CCCCCC1CCC(=O)O1 (stereo unspecified) | inactive |
| O=C(OC1C[C@H]2CC[C@@H](C1)[N+]21CCCC1)C(O)(c1ccccc1)c1ccccc1 (stereo partly specified) | inactive |
| OCCc1ccncc1 | inactive |
| Clc1cc(Cl)c2c(c1)N=C1CCCCCN1C2 | inactive |
| NC(=O)c1ccccc1C(N)=O | active |
| COC(=O)C(C)(C)C | inactive |
| CCc1c(C)[nH]c2c1C(=O)C(CN1CCOCC1)CC2 (stereo unspecified) | inactive |
| CCOc1ccc(NC(C)=O)cc1N | inactive |
| CC(C)=CCCC(C)C=O (stereo unspecified) | inactive |
| CS(C)=O | inactive |
| O=C(O)c1ccc2cc(O)ccc2c1 | inactive |
| C1=COCCC1 | inactive |
| CCC(=O)O[C@]1(C(=O)COC)[C@@H](C)C[C@H]2[C@@H]3CCC4=CC(=O)C=C[C@]4(C)C3(F)[C@@H](O)C[C@@]21C (stereo partly specified) | inactive |
| Cc1cccc(C)c1NC(=O)CN1CCCC1 | inactive |
| CC1(C)CC(O)CC(C)(C)N1[O] | inactive |
| CC(=O)c1ccc(Cl)c(Cl)c1Cl | inactive |
| O=C1c2ccccc2C(=O)c2c1ccc(O)c2O | inactive |
| C/C(=C(\CCO)SS/C(CCO)=C(\C)N(C=O)Cc1cnc(C)nc1N)N(C=O)Cc1cnc(C)nc1N | inactive |
| CCOCCn1c(N2CCCN(C)CC2)nc2ccccc21 | inactive |
| COc1ccc(/C=C/c2cc(OC)cc(=O)o2)cc1 | inactive |
| CC(=O)Nc1cccc(N)c1 | inactive |
| C=CC(=O)OCCCCCCCCCC | inactive |
| NC(=O)c1ccccc1 | inactive |
| CCCCCO | inactive |
| COc1cc(C)c(Cc2cnc(N)nc2N)cc1OC | inactive |
| Cc1ccc(NC=O)c(C)c1 | inactive |
| O=C(O)c1ccc(O)c(O)c1 | inactive |
| CCCCCCCCNC | inactive |
| CCOc1ccccc1O | inactive |
| O=C1c2ccccc2C(=O)C1c1ccc2ccccc2n1 | inactive |
